# Target under test: GluR6 receptor (Homo sapiens, UniProt Q13002)
# Sequence (Q13002 32-908): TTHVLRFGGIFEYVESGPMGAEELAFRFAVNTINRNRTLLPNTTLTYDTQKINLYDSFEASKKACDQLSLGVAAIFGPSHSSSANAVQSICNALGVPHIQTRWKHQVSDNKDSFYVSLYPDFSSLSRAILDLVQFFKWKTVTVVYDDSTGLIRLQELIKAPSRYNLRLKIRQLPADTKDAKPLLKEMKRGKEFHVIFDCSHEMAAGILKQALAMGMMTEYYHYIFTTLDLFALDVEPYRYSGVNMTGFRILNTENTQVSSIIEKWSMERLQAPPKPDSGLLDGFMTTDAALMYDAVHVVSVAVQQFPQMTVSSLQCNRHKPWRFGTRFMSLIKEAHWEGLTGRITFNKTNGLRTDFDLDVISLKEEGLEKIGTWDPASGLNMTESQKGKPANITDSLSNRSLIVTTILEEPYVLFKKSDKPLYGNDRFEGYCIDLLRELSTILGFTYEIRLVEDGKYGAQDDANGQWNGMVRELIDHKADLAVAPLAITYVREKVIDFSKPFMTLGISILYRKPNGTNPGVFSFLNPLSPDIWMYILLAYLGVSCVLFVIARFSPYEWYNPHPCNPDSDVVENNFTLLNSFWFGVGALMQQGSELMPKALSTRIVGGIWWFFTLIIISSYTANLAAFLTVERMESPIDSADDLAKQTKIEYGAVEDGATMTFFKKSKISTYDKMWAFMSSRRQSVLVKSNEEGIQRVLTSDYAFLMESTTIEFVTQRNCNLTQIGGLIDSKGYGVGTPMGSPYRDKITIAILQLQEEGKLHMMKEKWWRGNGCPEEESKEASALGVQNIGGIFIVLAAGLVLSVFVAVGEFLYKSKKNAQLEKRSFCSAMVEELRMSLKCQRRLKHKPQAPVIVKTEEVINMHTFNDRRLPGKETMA
# Method summary: GluR6 functional assay: inhibition of domoate-induced increase in Cai (FLIPR)
# Details: HEK 293 cells stably expressing GluR6; domoate 0.2 μM; Fluo-4 FLIPR, 25° C.
Value type: IC50 (µM)
Give bare numbers, in µM.

Illustrative cases are given below, each with its answer.
Compound: O=C(Nc1ccc2ccccc2c1)Nc1cc(Cl)ccc1C(=O)O [Compound E2]
Display unit: µM
Measurement: 70

Compound: O=C(Nc1cccc(Cl)c1)Nc1cc(Cl)ccc1C(=O)O
Display unit: µM
Measurement: 37

Alright, here's another compound for you.
Exam item: Return reported IC50; argument: `Cc1cc(S(=O)(=O)O)c(NC(=O)Nc2cccc(Br)c2)cc1Cl`
Marked response: 32

====

Value type: melting point

Illustrative cases are given below, each with its answer.
Structure as smiles: Cc1cc(S(=O)(=O)O)c(NC(=O)Nc2ccc3ccccc3c2)cc1Cl
melting point: > 300 °C

Structure as smiles: O=C(Nc1cc(Cl)ccc1C(=O)O)Nc1ccccc1-c1ccccc1
melting point: 208 to 209 °C

Structure as smiles: O=C(Nc1ccc(-c2ccccc2)cc1)Nc1cc(Cl)ccc1C(=O)O
melting point: 193 to 194 °C

Structure as smiles: O=C(Nc1cccc(Br)c1)Nc1cc(Cl)ccc1-c1noc(=O)[nH]1
melting point: 210 to 211 °C (dec.)

Structure as smiles: O=C(Nc1ccc(O)cc1)Nc1cc(Cl)ccc1C(=O)O
melting point: 212 to 214 °C (dec.)

Would you mind listing melting point for each of the following compounds?
1. O=C(Nc1ccc(F)cc1)Nc1cc(Cl)ccc1C(=O)O
2. O=C(Nc1cccc(I)c1)Nc1cc(Cl)ccc1C(=O)O
3. O=C(Nc1ccc2c(c1)OCO2)Nc1cc(Cl)ccc1C(=O)O

Marked response:
194 to 195 °C
192 to 193 °C
183 to 185 °C

Would you mind listing melting point for each of the following compounds?
1. O=C(Nc1cccs1)Nc1cc(Cl)ccc1C(=O)O
2. O=C(Nc1ccccn1)Nc1cc(Cl)ccc1C(=O)O

Marked response:
1. 199 to 200 °C
2. 222 to 224 °C

Exam item: Return reported melting point; argument: `O=C(Nc1ccc(I)cc1)Nc1cc(Cl)ccc1C(=O)O`
Marked response: 209 to 210 °C (dec.)

====

So I've got a bunch of compounds here, and I need their melting point values.

Illustrative cases are given below, each with its answer.
Compound: O=C(Nc1ccc2ccccc2c1)Nc1cc(Cl)ccc1C(=O)O [Compound E2]
melting point: 176 to 179 °C
--
Compound: O=C(Nc1cc(Cl)ccc1C(=O)O)Nc1ccccc1C(F)(F)F
melting point: 173 to 175 °C
--
Compound: O=C(Nc1cccc(C(F)(F)F)c1)Nc1cc(Cl)ccc1-c1noc(=O)[nH]1
melting point: 246 to 248 °C (dec.)

Would you mind listing melting point for each of the following compounds?
1. O=C(Nc1cccc(-c2ccccc2)c1)Nc1cc(Cl)ccc1C(=O)O
2. O=C(Nc1cc2ccccc2[nH]1)Nc1cc(Cl)ccc1S(=O)(=O)O
3. O=C(Nc1ccc2ccccc2c1)Nc1cc(Cl)ccc1-c1nnn[nH]1
4. O=C(Nc1cccc(C(F)(F)F)c1)Nc1cc(Cl)ccc1C(=O)O
5. COc1ccc(NC(=O)Nc2cc(Cl)ccc2C(=O)O)cc1
6. O=C(Nc1ccccc1)Nc1cc(Cl)ccc1C(=O)O
7. O=C(Nc1ccc(Cl)cc1)Nc1cc(Cl)ccc1C(=O)O
8. O=C(Nc1ccc2c(c1)-c1ccccc1C2=O)Nc1cc(Cl)ccc1C(=O)O

Marked response:
181 to 183 °C
277 to 279 °C (dec.)
167 to 169 °C (dec.)
179 to 182 °C
194 to 195 °C
186 to 188 °C
205 to 207 °C
260 to 263 °C (dec.)

Would you mind listing melting point for each of the following compounds?
1. O=C(Nc1ccccc1O)Nc1cc(Cl)ccc1C(=O)O
2. O=C(Nc1cccc(O)c1)Nc1cc(Cl)ccc1C(=O)O
3. COc1ccccc1NC(=O)Nc1cc(Cl)ccc1C(=O)O
4. Cc1cc(S(=O)(=O)O)c(NC(=O)Nc2cc3ccccc3[nH]2)cc1Cl
5. O=C(Nc1cccc(Cl)c1)Nc1cc(Cl)ccc1C(=O)O
6. O=C(Nc1ccccc1Br)Nc1cc(Cl)ccc1C(=O)O

Marked response:
179 to 180 °C (dec.)
209 to 211 °C
181 to 183 °C
284 to 286 °C (dec.)
207 to 209 °C
195 to 197 °C

Data credit: patent US7521480B2
